measured.on: G2019S LRRK2 (Homo sapiens, UniProt Q5S007, G2019S)
Construct: expressed in transfected cells; host or cells: HEK293 (ATCC CRL-1573)
Sequence (Q5S007 whole entry G2019S): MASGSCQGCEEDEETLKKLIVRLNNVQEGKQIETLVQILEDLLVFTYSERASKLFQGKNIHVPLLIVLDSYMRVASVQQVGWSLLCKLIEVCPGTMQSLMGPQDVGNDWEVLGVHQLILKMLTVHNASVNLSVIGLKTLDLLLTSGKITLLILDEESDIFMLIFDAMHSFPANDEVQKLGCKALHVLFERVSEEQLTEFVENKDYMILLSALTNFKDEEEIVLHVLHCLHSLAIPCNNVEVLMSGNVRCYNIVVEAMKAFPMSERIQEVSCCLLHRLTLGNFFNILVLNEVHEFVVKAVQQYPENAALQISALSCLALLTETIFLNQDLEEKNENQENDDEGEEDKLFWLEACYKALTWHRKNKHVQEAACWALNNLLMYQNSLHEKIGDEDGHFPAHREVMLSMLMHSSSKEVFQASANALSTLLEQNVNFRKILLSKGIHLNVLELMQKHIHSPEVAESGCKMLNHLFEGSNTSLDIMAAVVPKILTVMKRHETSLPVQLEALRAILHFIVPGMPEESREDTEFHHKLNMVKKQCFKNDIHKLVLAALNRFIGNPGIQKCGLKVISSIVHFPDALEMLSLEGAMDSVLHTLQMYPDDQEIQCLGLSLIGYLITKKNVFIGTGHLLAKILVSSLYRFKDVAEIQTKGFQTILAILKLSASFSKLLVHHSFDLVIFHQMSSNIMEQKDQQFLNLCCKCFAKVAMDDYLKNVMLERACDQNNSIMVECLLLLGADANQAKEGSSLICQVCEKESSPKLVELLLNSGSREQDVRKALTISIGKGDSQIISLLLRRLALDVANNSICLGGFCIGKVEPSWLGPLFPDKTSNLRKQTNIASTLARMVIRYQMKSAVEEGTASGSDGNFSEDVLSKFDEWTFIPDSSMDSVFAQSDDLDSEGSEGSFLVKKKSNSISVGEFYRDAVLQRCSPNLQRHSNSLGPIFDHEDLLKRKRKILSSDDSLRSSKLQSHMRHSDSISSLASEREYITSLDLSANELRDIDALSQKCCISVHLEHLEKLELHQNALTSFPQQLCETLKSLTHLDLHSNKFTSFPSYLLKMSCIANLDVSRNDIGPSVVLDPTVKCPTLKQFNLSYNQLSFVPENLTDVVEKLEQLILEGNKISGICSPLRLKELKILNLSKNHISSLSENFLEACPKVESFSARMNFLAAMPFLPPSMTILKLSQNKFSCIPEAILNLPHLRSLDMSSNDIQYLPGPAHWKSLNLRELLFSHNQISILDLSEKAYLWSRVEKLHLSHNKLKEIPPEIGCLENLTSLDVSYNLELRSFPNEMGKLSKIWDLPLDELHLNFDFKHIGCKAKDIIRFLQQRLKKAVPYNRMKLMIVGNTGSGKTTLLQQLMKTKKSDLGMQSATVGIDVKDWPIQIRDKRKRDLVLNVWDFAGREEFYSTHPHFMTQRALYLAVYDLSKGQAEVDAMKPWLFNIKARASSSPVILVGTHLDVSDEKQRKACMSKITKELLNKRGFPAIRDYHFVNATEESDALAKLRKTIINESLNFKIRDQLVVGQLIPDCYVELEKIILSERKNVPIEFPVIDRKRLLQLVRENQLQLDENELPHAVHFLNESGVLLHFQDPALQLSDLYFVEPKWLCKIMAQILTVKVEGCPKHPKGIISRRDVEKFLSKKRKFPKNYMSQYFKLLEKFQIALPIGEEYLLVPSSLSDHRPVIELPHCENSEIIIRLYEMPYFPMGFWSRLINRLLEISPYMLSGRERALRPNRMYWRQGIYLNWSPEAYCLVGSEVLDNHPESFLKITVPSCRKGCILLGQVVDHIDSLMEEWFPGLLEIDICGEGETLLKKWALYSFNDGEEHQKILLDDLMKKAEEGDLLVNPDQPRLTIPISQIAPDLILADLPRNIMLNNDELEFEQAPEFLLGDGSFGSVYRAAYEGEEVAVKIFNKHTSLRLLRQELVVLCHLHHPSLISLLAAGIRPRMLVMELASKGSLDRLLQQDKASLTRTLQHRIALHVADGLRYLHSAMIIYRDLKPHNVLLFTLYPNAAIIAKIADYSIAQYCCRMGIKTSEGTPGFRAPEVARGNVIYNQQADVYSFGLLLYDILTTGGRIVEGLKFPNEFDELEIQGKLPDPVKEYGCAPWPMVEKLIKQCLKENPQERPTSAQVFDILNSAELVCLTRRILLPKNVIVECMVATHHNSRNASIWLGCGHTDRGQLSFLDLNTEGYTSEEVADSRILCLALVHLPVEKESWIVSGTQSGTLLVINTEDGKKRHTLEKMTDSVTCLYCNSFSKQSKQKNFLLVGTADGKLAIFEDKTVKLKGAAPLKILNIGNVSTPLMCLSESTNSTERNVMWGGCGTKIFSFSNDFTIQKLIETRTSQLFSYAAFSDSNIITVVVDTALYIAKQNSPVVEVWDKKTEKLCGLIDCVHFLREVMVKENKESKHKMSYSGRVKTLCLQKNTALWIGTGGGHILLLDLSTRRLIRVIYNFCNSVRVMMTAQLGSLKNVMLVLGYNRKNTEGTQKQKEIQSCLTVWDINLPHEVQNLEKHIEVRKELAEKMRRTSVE
experimental.protocol: LRRK2 degradation HiBit assay, G2019S LRRK2 tagged with a HiBit tag expressed in HEK293 cells
Format: cell-based
condition.context: HEK293 cells, 24 hours compound incubation
measurement.name: DC50

Query block: So what does the record say about DC50 for CC1=C(C(=O)Nc2ccc3[nH]nc(-c4ccnc(N5CCN(CCN6CCC(CN7CCN(c8ccc9c(c8)C(=O)N(C8CCC(=O)NC8=O)C9=O)CC7)CC6)CC5)c4)c3c2)[C@H](C)n2nnnc2N1C (some centres unmarked) ?
Result block: ≥ 0.1 µM

Query block: Try this molecule too: CC1=C(C(=O)Nc2ccc3[nH]nc(-c4ccnc(N5CCN(CC6CCN(CC7CCN(c8ccc9c(c8)C(=O)N(C8CCC(=O)NC8=O)C9=O)CC7)CC6)CC5)c4)c3c2)Cn2nnnc2N1C (centres unmarked)
Result block: 0.01 to 0.05 µM

Query block: Next molecule: CC1=C(C(=O)Nc2ccc3[nH]nc(-c4ccnc(N5CCN(CCCN6CCN(c7ccc8c(c7)C(=O)N(C7CCC(=O)NC7=O)C8=O)CC6)CC5)c4)c3c2)[C@@H](C)n2nnnc2N1C (some centres unmarked)
Result block: 0.01 to 0.05 µM

Query block: Same thing, different molecule: CC1=C(C(=O)Nc2ccc3[nH]nc(-c4ccnc(N5CCN(CC6CCN(CC7CCN(c8ccc9c(c8)C(=O)N(C8CCC(=O)NC8=O)C9=O)CC7)CC6)[C@@H](C)C5)c4)c3c2)C(C)(C)n2nnnc2N1C (some centres unmarked)
Result block: 0.01 to 0.05 µM

Query block: Cool, now CC1=C(C(=O)Nc2ccc3[nH]nc(-c4ccnc(N5CCN(CCN6CCC(CN7CCN(c8ccc9c(c8)C(=O)N(C8CCC(=O)NC8=O)C9=O)CC7)CC6)[C@@H](C)C5)c4)c3c2)C(C)(C)n2nnnc2N1C (some centres unmarked)
Result block: ≥ 0.1 µM

----------
measured.on: wildtype LRRK2 (Homo sapiens)
Construct: endogenous in cells; host or cells: HEK293 with HiBit knocked in at the 3' end of the endogenous LRRK2 gene, stably expressing firefly luciferase
experimental.protocol: LRRK2 degradation HiBit assay, wildtype LRRK2 tagged with a HiBit tag in HEK293 cells
Assay type: cell-based
condition.context: 24 hours compound incubation, read-out: *WT DC50
measurement.name: DC50

Query block: Write down the reported DC50 of CC1=C(C(=O)Nc2ccc3[nH]nc(-c4ccnc(N5CCN(CCCN6CCN(c7ccc8c(c7)C(=O)N(C7CCC(=O)NC7=O)C8=O)CC6)CC5)c4)c3c2)[C@@H](C)n2nnnc2N1C (stereo partly drawn) , test system: wildtype LRRK2 (Homo sapiens).
Result block: ≥ 100 nM

Query block: // same read-out, input: CC1=C(C(=O)Nc2ccc3[nH]nc(-c4ccnc(N5CCN(CCOCCN6CC7(C6)CN(c6ccc8c(c6)C(=O)N(C6CCC(=O)NC6=O)C8=O)C7)CC5)c4)c3c2)[C@@H](C)n2nnnc2N1C (stereo partly drawn)
Result block: ≥ 100 nM

Query block: // same read-out, input: CC1=C(C(=O)Nc2ccc3[nH]nc(-c4ccnc(N5CCN(CCN6CCC(CN7CCN(c8ccc9c(c8)C(=O)N(C8CCC(=O)NC8=O)C9=O)CC7)CC6)[C@@H](C)C5)c4)c3c2)[C@H](C)n2nnnc2N1C (stereo partly drawn)
Result block: ≥ 100 nM

----------
Record form. Attribute: DC50. Fill in for each entry.
measured.on: wildtype LRRK2 (Homo sapiens, UniProt Q5S007)
Construct: endogenous in cells; host or cells: HEK293 with HiBit knocked in at the 3' end of the endogenous LRRK2 gene, stably expressing firefly luciferase
Sequence (Q5S007 whole entry): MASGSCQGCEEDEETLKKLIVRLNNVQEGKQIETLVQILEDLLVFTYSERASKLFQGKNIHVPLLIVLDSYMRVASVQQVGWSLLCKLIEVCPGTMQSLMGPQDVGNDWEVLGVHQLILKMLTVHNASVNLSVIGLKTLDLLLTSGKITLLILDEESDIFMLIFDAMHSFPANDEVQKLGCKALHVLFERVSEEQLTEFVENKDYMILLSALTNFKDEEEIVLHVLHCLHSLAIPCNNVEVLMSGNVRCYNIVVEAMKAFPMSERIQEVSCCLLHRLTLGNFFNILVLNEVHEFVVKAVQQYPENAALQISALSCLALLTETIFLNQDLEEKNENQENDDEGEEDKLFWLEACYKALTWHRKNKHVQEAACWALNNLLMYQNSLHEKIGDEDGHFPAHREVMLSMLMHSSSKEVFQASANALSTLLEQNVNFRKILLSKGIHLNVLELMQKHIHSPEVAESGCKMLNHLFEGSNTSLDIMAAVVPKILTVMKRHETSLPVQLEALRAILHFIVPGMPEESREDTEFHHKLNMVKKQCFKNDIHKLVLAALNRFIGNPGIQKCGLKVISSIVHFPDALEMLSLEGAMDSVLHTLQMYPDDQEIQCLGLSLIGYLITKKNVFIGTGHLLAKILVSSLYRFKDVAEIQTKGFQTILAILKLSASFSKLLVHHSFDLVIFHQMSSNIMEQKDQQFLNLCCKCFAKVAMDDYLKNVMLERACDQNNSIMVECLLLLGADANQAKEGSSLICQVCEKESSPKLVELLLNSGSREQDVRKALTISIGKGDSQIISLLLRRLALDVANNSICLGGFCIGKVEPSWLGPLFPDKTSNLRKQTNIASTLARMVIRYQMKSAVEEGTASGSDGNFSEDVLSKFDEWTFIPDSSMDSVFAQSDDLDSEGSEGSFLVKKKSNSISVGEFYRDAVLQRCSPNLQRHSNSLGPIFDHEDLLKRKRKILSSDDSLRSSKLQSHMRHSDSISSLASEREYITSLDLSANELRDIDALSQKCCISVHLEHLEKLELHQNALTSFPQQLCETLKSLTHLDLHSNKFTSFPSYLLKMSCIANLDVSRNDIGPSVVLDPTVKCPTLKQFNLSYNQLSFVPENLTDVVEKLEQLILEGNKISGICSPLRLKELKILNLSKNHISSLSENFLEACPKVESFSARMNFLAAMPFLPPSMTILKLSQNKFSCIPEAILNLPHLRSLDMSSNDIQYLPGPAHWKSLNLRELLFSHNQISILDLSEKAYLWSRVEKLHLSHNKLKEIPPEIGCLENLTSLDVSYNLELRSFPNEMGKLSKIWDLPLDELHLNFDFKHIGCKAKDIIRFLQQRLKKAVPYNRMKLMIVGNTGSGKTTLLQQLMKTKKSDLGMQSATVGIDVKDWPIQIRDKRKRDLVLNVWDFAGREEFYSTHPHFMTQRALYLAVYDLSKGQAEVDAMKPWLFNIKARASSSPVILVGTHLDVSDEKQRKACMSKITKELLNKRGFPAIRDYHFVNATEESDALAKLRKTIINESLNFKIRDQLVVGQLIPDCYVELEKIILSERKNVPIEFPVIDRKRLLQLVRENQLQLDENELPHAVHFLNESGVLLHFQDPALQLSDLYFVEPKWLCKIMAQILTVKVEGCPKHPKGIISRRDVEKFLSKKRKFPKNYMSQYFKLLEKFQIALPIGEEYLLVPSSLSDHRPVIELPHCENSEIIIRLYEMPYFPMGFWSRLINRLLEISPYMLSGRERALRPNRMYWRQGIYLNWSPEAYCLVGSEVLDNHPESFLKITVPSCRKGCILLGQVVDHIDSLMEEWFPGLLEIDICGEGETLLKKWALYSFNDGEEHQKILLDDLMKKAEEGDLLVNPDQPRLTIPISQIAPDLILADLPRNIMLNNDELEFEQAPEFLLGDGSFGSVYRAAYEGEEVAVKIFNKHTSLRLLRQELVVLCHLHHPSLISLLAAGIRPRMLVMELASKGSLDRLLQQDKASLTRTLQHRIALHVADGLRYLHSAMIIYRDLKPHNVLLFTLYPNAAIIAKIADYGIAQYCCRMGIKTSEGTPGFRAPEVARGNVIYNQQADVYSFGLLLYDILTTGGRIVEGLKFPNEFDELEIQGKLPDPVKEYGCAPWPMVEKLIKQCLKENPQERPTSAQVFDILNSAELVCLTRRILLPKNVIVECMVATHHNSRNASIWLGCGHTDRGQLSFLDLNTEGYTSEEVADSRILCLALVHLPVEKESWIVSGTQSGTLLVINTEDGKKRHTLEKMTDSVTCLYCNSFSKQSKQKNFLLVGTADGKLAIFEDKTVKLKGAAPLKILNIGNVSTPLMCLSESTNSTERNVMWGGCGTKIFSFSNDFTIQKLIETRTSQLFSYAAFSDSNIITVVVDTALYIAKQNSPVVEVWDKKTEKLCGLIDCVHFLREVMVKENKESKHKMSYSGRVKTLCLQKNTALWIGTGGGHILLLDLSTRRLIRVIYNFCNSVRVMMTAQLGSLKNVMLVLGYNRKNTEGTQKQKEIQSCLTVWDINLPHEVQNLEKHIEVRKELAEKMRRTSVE
experimental.protocol: LRRK2 degradation HiBit assay, wildtype LRRK2 tagged with a HiBit tag in HEK293 cells
Assay type: cell-based
condition.context: 24 hours compound incubation, read-out: *WT DC50

Query block: # query: DC50 of entry CC1=C(C(=O)Nc2ccc3[nH]nc(-c4ccnc(N5CCN(CC6CCN(CC7CCN(c8ccc9c(c8)C(=O)N(C8CCC(=O)NC8=O)C9=O)CC7)CC6)CC5)c4)c3c2)[C@H](C)n2nnnc2N1C (some centres unmarked)
Result block: ≥ 0.1 µM

Query block: Next record, please: CC1=C(C(=O)Nc2ccc3[nH]nc(-c4ccnc(N5CCN(CC6CN(CC7CCN(c8ccc9c(c8)C(=O)N(C8CCC(=O)NC8=O)C9=O)CC7)C6)CC5)c4)c3c2)[C@@H](C)n2nnnc2N1C (some centres unmarked)
Result block: ≥ 0.1 µM

Query block: Item: CC1=C(C(=O)Nc2ccc3[nH]nc(-c4ccnc(N5C[C@@H](C)N(CC6CCN(CC7CCN(c8ccc9c(c8)C(=O)N(C8CCC(=O)NC8=O)C9=O)CC7)CC6)[C@@H](C)C5)c4)c3c2)C(C)n2nnnc2N1C (some centres unmarked)
Result block: 0.01 to 0.05 µM

Query block: Follow-up entry: CC1=C(C(=O)Nc2ccc3[nH]nc(-c4ccnc(N5CCN(CCC6CCN(CC7CCN(c8ccc9c(c8)C(=O)N(C8CCC(=O)NC8=O)C9=O)CC7)CC6)CC5)c4)c3c2)[C@@H](C)n2nnnc2N1C (some centres unmarked)
Result block: ≥ 0.1 µM

Query block: Now this one: CC1=C(C(=O)Nc2ccc3[nH]nc(-c4ccnc(N5CCN(CCN6CCN(CC7CCN(c8ccc9c(c8)C(=O)N(C8CCC(=O)NC8=O)C9=O)CC7)CC6)CC5)c4)c3c2)[C@@H](C)n2nnnc2N1C (some centres unmarked) [compound 21]
Result block: ≥ 0.1 µM

----------
measured.on: G2019S LRRK2 (Homo sapiens, UniProt Q5S007, G2019S)
Construct: expressed in transfected cells; host or cells: HEK293 (ATCC CRL-1573)
experimental.protocol: LRRK2 degradation HiBit assay, G2019S LRRK2 tagged with a HiBit tag expressed in HEK293 cells
Format: cell-based
condition.context: HEK293, HEK293 cells, 24 hours compound incubation
measurement.name: Dmax

Query block: Param readout= Dmax; system= G2019S LRRK2 (Homo sapiens, UniProt Q5S007, G2019S); entry= CC1=C(C(=O)Nc2ccc3[nH]nc(-c4ccnc(N5CCN(CCN6CCC(CN7CCN(c8ccc9c(c8)C(=O)N(C8CCC(=O)NC8=O)C9=O)CC7)CC6)[C@@H](C)C5)c4)c3c2)[C@H](C)n2nnnc2N1C (stereo partly drawn) [compound 31] ; returns value.
Result block: < 50%

Query block: Try this compound next: CC1=C(C(=O)Nc2ccc3[nH]nc(-c4ccnc(N5CCN(CC6CCN(C7CCN(c8ccc9c(c8)C(=O)N(C8CCC(=O)NC8=O)C9=O)CC7)CC6)CC5)c4)c3c2)[C@@H](C)n2nnnc2N1C (stereo partly drawn) [compound 18]
Result block: 50 to 70%

Query block: Further, for CC1=C(C(=O)Nc2ccc3[nH]nc(-c4ccnc(N5C[C@@H](C)N(CC6CCN(CC7CCN(c8ccc9c(c8)C(=O)N(C8CCC(=O)NC8=O)C9=O)CC7)CC6)[C@@H](C)C5)c4)c3c2)Cn2nnnc2N1C (stereo partly drawn) [compound 1] ?
Result block: 50 to 70%

Query block: # repeat for CC1=C(C(=O)Nc2ccc3[nH]nc(-c4ccnc(N5CCN(CC(F)(F)C6CCN(CC7CCN(c8ccc9c(c8)C(=O)N(C8CCC(=O)NC8=O)C9=O)CC7)CC6)CC5)c4)c3c2)[C@@H](C)n2nnnc2N1C (stereo partly drawn) [compound 22]
Result block: 50 to 70%

Query block: Now the same for CC1=C(C(=O)Nc2ccc3[nH]nc(-c4ccnc(N5CCN(CCN6CCN(CC7CCN(c8ccc9c(c8)C(=O)N(C8CCC(=O)NC8=O)C9=O)CC7)CC6)[C@@H](C)C5)c4)c3c2)[C@H](C)n2nnnc2N1C (stereo partly drawn) [compound 28]
Result block: 50 to 70%

Query block: Same question, CC1=C(C(=O)Nc2ccc3[nH]nc(-c4ccnc(N5CC6(CN(CC7CCN(c8ccc9c(c8)C(=O)N(C8CCC(=O)NC8=O)C9=O)CC7)C6)C5)c4)c3c2)[C@@H](C)n2nnnc2N1C (stereo partly drawn) [compound 26] this time
Result block: ≥ 70%

Query block: Let us now turn to CC1=C(C(=O)Nc2ccc3[nH]nc(-c4ccnc(N5CCN(CCN6CCC(CC7CCN(c8ccc9c(c8)C(=O)N(C8CCC(=O)NC8=O)C9=O)CC7)CC6)CC5)c4)c3c2)[C@@H](C)n2nnnc2N1C (stereo partly drawn) [compound 23]
Result block: 50 to 70%

Query block: What do you have for CC1=C(C(=O)Nc2ccc3[nH]nc(-c4ccnc(N5CCN(CCN6CCC(CN7CCN(c8ccc9c(c8)C(=O)N(C8CCC(=O)NC8=O)C9=O)CC7)CC6)CC5)c4)c3c2)C(C)(C)n2nnnc2N1C (stereo not drawn) [compound 33] ?
Result block: < 50%

Query block: Proceed to CC1=C(C(=O)Nc2ccc3[nH]nc(-c4ccnc(N5CCN(CC6CCN(CC7CCN(c8ccc9c(c8)C(=O)N(C8CCC(=O)NC8=O)C9=O)CC7)CC6)[C@@H](C)C5)c4)c3c2)C(C)(C)n2nnnc2N1C (stereo partly drawn) [compound 34]
Result block: < 50%
